SYSTEM TESTED: glycoprotein B (gB) of HSV-1 strain F on infected Vero cells (Herpes simplex virus type 1, strain F, UniProt P06436 30-903)
METHOD DESCRIPTION: cell-based or functional assay
concentration [nM] required for 50% neutralization of 100 TCID50 overview
EXPERIMENTAL READOUT: concentration [nM] required for 50% neutralization of 100 TCID50 (nM)

humanized mAb h2c-V2 (antibody, V domains shown, also called hu2c-V2) VH: QVTLKESGPALVKPTQTLTLTCTFSGFSLSTSGMSVGWIRQPPGKALEWLAHIWWNNDKYYKPALKSRLTISKDTSKKQVVLTMTNMDPVDTATYYCARIYYGYRPYAMDYWGQGTLVTVSS VL: DIVMTQTPLSLPVTPGEPASISCRSSQSIVHSNGNTYLEWYLQKPGQSPQLLIYKVSNRFSGVPDRFSGSGSGTDFTLKISRVEAEDVGVYYCFQGSHVPWSFGQGTKVEIKR : 5.1
humanized mAb h2c-V1 (antibody, V domains shown, also called hu2c-V1; mAb hu2c-V1) VH: QVTLKESGPALVKPTQTLTLTCTFSGFSLSTSGMSVGWIRQPPGKALEWLAHIWWNNDKYYKPALKSRLTISKDTSKNQVVLTMTNMDPVDTATYYCARIYYGYRPYAMDYWGQGTLVTVSS VL: DIVMTQTPLSLPVTPGEPASISCRSSQSIVHSNGNTYLEWYLQKPGQSPQLLIYKVSNRFSGVPDRFSGSGSGTDFTLKISRVEAEDVGVYYCFQGSHVPWSFGQGTKVEIKR : 3.7
humanized mAb h2c-V4 (antibody, V domains shown, also called hu2c-V4) VH: QVTLKESGPALVKPTQTLTLTCTFSGFSLSTSGMSVGWIRQPPGKALEWLAHIWWNNDKYYKPALKSRLTISKDTSKKQVFLTMTNMDPVDTATYYCARIYYGYRPYAMDYWGQGTLVTVSS VL: DVVMTQTPLSLPVTPGEPASISCRSSQSIVHSNGNTYLEWYLQKPGQSPQLLIYKVSNRFSGVPDRFSGSGSGTDFTLKISRVEAEDVGVYYCFQGSHVPWSFGQGTKVEIKR : 3.7
humanized mAb h2c-V3 (antibody, V domains shown, also called hu2c-V3) VH: QVTLKESGPALVKPTQTLTLTCTFSGFSLSTSGMSVGWIRQPPGKALEWLAHIWWNNDKYYKPALKSRLTISKDTSKKQVFLTMTNMDPVDTATYYCARIYYGYRPYAMDYWGQGTLVTVSS VL: DIVMTQTPLSLPVTPGEPASISCRSSQSIVHSNGNTYLEWYLQKPGQSPQLLIYKVSNRFSGVPDRFSGSGSGTDFTLKISRVEAEDVGVYYCFQGSHVPWSFGQGTKVEIKR : 3.3
